Origin of the recorded values: ChEMBL document CHEMBL5214923

- TARGET ENTITY: mTORC2 (Homo sapiens, UniProt P42345+Q6R327+Q9BPZ7+Q9BVC4)
- Sequence (Q6R327 whole entry, other chains not shown): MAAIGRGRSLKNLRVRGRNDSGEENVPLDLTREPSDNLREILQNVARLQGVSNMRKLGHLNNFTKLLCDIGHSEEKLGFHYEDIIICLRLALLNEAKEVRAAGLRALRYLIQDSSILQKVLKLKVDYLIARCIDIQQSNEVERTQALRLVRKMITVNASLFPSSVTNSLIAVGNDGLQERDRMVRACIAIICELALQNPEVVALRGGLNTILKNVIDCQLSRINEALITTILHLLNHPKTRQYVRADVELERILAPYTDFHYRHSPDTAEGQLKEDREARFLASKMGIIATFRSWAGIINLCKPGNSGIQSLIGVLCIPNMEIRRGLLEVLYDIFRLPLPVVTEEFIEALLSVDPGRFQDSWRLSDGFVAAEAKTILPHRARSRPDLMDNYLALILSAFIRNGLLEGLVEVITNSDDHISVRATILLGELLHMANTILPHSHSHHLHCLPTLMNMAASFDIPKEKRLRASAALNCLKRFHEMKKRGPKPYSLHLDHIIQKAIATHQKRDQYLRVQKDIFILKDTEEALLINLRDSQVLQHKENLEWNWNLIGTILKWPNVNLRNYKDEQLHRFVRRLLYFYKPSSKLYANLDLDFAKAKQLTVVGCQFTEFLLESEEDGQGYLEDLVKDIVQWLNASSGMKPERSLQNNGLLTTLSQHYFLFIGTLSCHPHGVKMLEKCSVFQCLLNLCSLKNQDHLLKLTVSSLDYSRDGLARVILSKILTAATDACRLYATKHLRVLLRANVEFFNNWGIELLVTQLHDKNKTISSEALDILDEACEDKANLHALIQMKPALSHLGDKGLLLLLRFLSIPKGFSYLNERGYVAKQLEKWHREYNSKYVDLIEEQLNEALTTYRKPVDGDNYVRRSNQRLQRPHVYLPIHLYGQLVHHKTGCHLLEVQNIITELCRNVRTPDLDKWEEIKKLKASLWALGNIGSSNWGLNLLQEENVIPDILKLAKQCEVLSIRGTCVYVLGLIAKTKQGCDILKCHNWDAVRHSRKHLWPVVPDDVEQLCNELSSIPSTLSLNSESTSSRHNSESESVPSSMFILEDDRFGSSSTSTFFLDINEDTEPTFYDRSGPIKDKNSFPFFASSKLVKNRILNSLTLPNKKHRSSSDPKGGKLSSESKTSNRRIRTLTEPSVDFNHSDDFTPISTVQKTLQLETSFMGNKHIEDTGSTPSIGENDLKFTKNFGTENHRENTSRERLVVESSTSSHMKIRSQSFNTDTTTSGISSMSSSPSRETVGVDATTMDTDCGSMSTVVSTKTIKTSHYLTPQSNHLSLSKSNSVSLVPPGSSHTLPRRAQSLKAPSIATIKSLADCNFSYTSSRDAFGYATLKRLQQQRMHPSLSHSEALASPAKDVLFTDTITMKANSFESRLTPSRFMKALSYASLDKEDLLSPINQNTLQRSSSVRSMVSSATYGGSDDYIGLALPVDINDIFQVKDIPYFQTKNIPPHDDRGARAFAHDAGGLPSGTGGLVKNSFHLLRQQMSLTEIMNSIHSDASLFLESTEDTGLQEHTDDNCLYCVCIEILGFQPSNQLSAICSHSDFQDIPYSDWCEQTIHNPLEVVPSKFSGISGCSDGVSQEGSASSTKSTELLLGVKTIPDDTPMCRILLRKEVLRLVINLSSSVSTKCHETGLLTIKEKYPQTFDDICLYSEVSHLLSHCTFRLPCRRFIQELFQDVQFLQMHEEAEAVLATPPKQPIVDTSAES
- Sequence (Q9BPZ7 2-522 limits assumed, other chains not shown): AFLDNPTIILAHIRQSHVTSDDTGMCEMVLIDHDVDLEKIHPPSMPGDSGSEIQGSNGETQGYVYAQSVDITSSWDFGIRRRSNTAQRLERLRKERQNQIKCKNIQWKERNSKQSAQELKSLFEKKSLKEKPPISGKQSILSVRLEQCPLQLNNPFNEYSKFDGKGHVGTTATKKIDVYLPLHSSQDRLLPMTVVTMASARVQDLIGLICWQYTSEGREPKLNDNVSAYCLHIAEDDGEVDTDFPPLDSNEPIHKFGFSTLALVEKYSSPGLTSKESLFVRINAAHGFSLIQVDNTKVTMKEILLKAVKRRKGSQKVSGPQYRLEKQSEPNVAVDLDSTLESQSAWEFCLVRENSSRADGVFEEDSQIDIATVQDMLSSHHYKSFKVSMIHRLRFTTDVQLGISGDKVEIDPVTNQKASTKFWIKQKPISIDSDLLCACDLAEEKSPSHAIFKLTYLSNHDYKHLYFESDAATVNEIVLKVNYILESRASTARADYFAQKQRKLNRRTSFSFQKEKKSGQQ
- Sequence (Q9BVC4 whole entry, other chains not shown): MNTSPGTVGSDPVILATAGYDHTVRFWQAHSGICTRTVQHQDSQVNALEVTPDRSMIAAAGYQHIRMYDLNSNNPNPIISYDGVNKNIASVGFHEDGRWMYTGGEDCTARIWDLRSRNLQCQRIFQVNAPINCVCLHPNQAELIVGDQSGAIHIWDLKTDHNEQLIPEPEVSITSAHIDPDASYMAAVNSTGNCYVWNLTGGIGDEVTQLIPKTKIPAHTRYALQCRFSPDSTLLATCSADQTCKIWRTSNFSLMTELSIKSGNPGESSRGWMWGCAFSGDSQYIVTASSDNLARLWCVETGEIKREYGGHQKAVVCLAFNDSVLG
- ASSAY PROCEDURE: Inhibition of mTORC2 in human MDA-MB-468 cells assessed as measuring phosphorylated AKT incubated for 2 to 4 hrs by AlphaLISA assay
- Format: cell-based
QUANTITY: IC50 (nM)
Give bare numbers, in nM.

COMPOUND	QUANTITY	VALUE UNIT	MEAS VALUE
CO[C@H]1C[C@@H]2CC[C@@H](C)[C@@](O)(O2)C(=O)C(=O)N2CCCC[C@H]2C(=O)O[C@H]([C@H](C)C[C@@H]2CC[C@@H](OCCCN3CCOC(C)(C)C3)[C@H](OC)C2)CC[C@H](C)/C=C(\C)[C@@H](O)[C@@H](OC)C(NOCC(=O)NCCOCCOCCOCCOCCOCCOCCC(=O)N2CCc3cc(Cn4nc(-c5ccc6oc(N)nc6c5)c5c(N)ncnc54)ccc3C2)[C@H](C)C[C@H](C)C\C=C/C=C/C=C/1C (stereo not given in full)	IC50	nM	1000

Then there is this compound:
input: Quick one: IC50 for CO[C@H]1C[C@@H]2CC[C@@H](C)[C@@](O)(O2)C(=O)C(=O)N2CCCC[C@H]2C(=O)O[C@H]([C@H](C)C[C@@H]2CC[C@@H](OCCCN3CCOC(C)(C)C3)[C@H](OC)C2)C[C@@H](O)[C@H](C)/C=C(\C)[C@@H](O)[C@@H](OC)C(NOCC(=O)NCCOCCOCCOCCOCCOCCOCCC(=O)N2CCc3cc(Cn4nc(-c5ccc6oc(N)nc6c5)c5c(N)ncnc54)ccc3C2)[C@H](C)C[C@H](C)C\C=C/C=C/C=C/1C (stereo not given in full) ?
output: 1000
